target.system: human plasma kallikrein (human, UniProt P03952 20-390; P03952 391-638)
Sequence (P03952 20-390, chain 1 of 2): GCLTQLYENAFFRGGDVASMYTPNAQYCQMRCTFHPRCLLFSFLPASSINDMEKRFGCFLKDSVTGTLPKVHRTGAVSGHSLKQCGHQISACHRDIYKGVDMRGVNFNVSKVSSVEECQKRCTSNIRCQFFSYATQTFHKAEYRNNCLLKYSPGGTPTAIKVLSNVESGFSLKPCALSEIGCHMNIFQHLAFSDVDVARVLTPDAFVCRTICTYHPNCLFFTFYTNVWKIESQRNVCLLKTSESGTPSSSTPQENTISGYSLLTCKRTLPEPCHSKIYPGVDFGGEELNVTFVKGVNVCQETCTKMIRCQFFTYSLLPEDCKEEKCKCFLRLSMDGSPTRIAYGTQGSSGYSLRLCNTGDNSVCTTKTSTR
Sequence (P03952 391-638, chain 2 of 2): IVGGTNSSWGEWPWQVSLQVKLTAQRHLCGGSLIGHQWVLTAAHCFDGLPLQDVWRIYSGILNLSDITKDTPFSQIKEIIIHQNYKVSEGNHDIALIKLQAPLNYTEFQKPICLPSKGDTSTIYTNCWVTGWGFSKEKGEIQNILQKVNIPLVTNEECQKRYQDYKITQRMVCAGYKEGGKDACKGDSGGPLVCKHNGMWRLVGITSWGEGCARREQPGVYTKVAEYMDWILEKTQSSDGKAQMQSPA
test: cell-based or functional assay
Lab note: anything with % inhibition at 10 nM at or over 90% counts as rule met; the rest go in rule not met.

Take a look at these entries with their results.
>  <binder>
M198-B09 (Fab, V domains shown) VH: EVQLLESGGGLVQPGGSLRLSCAASGFTFSVYSMTWVRQAPGKGLEWVSSIGSSGGSTTYADSVKGRFTISRDNSKNTLYLQMNSLRAEDTAVYYCAYRRTGIPRRDAFDIWGQGTMVTVSS VL: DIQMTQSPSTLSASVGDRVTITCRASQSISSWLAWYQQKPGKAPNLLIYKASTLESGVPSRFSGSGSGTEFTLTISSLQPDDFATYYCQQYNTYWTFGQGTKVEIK

>  <class>
rule met

$$$$
>  <binder>
M197-H10 (Fab, V domains shown) VH: EVQLLESGGGLVQPGGSLRLSCAASGFTFSSYNMHWVRQAPGKGLEWVSSIVPSGGKTNYADSVKGRFTISRDNSKNTLYLQMNSLRAEDTAVYYCAYRRTGIPRRDAFDIWGQGTMVTVSS VL: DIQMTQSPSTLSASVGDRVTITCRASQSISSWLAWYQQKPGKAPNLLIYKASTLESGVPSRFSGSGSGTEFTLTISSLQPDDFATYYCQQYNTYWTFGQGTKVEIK

>  <class>
rule met

$$$$

# input for lookup
State whether the measured % inhibition at 10 nM reaches 90%, counting equality as reaching it, for M195-C12 (Fab, V domains shown) VH: EVQLLESGGGLVQPGGSLRLSCAASGFTFSMYQMFWVRQAPGKGLEWVSSISPGGGTQYADSVKGRFTISRDNSKNTLYLQMNSLRAEDTAVYYCAYRRTGIPRRDAFDIWGQGTMVTVSS VL: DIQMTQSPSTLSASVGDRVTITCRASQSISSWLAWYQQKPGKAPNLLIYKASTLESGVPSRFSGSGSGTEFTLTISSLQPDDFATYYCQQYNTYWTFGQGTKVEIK
rule not met
